B1: CCND2 (parent)
chain: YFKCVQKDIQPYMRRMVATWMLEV

Variants of: B1
Assay Details: protein stability index of a GFP-peptide fusion (GPS, HEK-293T) (PSI 1-6); higher = more stable;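 also: lentivirally expressed fusions sorted by FACS into six bins by GFP to DsRed ratio, PSI derived from sequencing read proportions per bin multiplied by bin number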
Run Conditions: c terminus: a fixed tail appended
Quick reference for protein stability index among some variants
The answer should be written as a number, with no unit following it.

YFKCVQKDIQPYFRRMVATWMLEV [M13F]    3.07

Form: variant = YFKCVQKDIQPYMVRMVATWMLEV [R14V] ; protein stability index = 2.55

Form: variant = YFKCVGKDIQPYMRRMVATWMLEV [Q6G] ; protein stability index = 2.47

Form: variant = YFKCVTKDIQPYMRRMVATWMLEV [Q6T] ; protein stability index = 2.38

Form: variant = YFKCVQKDYQPYMRRMVATWMLEV [I9Y] ; protein stability index = 3.57

Form: variant = YFKCVQKDIQPYMRRMVATWMLNV [E23N] ; protein stability index = 2.39

Form: variant = YFKPVQKDIQPYMRRMVATWMLEV [C4P] ; protein stability index = 2.44
